tested on: wheat (Wh); assay: Test Example 3: phytotoxicity to upland crop plants, treatment before emergence; format: in vivo; conditions: dosage 5 kg/ha
Consider the following compounds; for each one, report its Phytotoxicity Wh.

compound: CCCNC(=O)c1nc2c(cc1C(=O)Nc1c(CC)ccc(Cl)c1CC)CCO2 [compound 919]
Phytotoxicity Wh: 5 (Crop-killing rate is 100%.)
--
compound: CCCNC(=O)c1nc2cc3c(cc2cc1C(=O)Nc1c(CC)ccc(Cl)c1CC)OCO3 [compound 334]
Phytotoxicity Wh: 2 (Crop-killing rate is 40-69%.)
--
compound: CCCNC(=O)c1nc2c(cc1C(=O)Nc1c(CC)ccc(Cl)c1CC)CCCS2 [compound 510]
Phytotoxicity Wh: 5 (Crop-killing rate is 100%.)

Can you give me Phytotoxicity Wh for all of these, one by one?
1. CCCNC(=O)c1nc2ccc(OC)cc2cc1C(=O)Nc1c(CC)ccc(Cl)c1CC [compound 290]
2. Cc1c(Cl)cccc1NC(=O)c1cc2c(nc1C(=O)NCC(C)C)OCCC2 [compound 431]
3. CCCNC(=O)c1nc2ccn(C)c2cc1C(=O)Nc1c(CC)ccc(Cl)c1CC [compound 907]
4. CCCNC(=O)c1nc2c(cnn2C)cc1C(=O)Nc1c(CC)ccc(Cl)c1CC [compound 1088]

Response:
1. 2 (Crop-killing rate is 40-69%.)
2. 3 (Crop-killing rate is 70-89%.)
3. 5 (Crop-killing rate is 100%.)
4. 5 (Crop-killing rate is 100%.)

* * *

test system: cocklebur (Xanthium strumarium L.), Xs; test: Test Example 4: herbicidal effect on upland weeds after emergence; format: in vivo; conditions: dosage 5 kg/ha; sprayed after emergence; judged 14 days after treatment
Can you tell me Herbicidal effect Xs for the items I'm about to list?

compound: CCCNC(=O)c1cc2c(nc1C(=O)Nc1c(CC)ccc(Cl)c1CC)[S+]([O-])CC2 (centres unmarked) [Compound No. 1028]
Herbicidal effect Xs: 5 (Weed-killing rate is 100%.)
--
compound: CCCNC(=O)c1nc2c(cc1C(=O)Nc1cccc(Cl)c1C)COCC2 [compound 474]
Herbicidal effect Xs: 4 (Weed-killing rate is 90-99%.)
--
compound: CCCNC(=O)c1nc2ccc(OC)cc2cc1C(=O)Nc1c(CC)ccc(Cl)c1CC [compound 290]
Herbicidal effect Xs: 4 (Weed-killing rate is 90-99%.)

For every item below, please supply its Herbicidal effect Xs.
1. CCCNC(=O)c1nc2cc3c(cc2cc1C(=O)Nc1c(CC)ccc(Cl)c1CC)OCO3 [compound 334]
2. CCCNC(=O)c1nc2ccccc2nc1C(=O)Nc1c(CC)ccc(Cl)c1CC [compound 1306]

Response:
3 (Weed-killing rate is 70-89%.)
5 (Weed-killing rate is 100%.)

* * *

test system: wheat; experiment: Test Example 4: phytotoxicity to upland crop plants, treatment after emergence; type: in vivo; settings: dosage 5 kg/ha, sprayed after emergence, judged 14 days after treatment
recordedEndpoint: Phytotoxicity Wh

compound: CCCNC(=O)c1nc2ccoc2cc1C(=O)Nc1c(CC)ccc(Cl)c1CC [compound 847]
Phytotoxicity Wh: 5 (Crop-killing rate is 100%.)
--
compound: CCCNC(=O)c1nc2c(cc1C(=O)Nc1c(CC)ccc(Cl)c1CC)CCCS2 [compound 510]
Phytotoxicity Wh: 5 (Crop-killing rate is 100%.)
--
compound: CCc1ccc(Cl)c(CC)c1NC(=O)c1cc2ccccc2nc1C(=O)NCC(C)(C)C [359-5]
Phytotoxicity Wh: 3 (Crop-killing rate is 70-89%.)
--
compound: CCCNC(=O)c1nc2c(cc1C(=O)Nc1c(CC)ccc(Cl)c1CC)COCC2 [Compound No. 462]
Phytotoxicity Wh: 5 (Crop-killing rate is 100%.)
--
compound: CCCNC(=O)c1nc2ccccc2cc1C(=O)Nc1c(CC)ccc(Cl)c1CC [359-3]
Phytotoxicity Wh: 2 (Crop-killing rate is 40-69%.)

Go through the list and state Phytotoxicity Wh for each entry.
1. CCCNC(=O)c1nc2c(cc1C(=O)Nc1cccc(Cl)c1C)COCC2 [compound 474]
2. CCCNC(=O)c1nc2c(ccn2C)cc1C(=O)Nc1c(CC)ccc(Cl)c1CC [compound 824]

Response:
3 (Crop-killing rate is 70-89%.)
5 (Crop-killing rate is 100%.)

* * *

Give Phytotoxicity Wh for every item shown.
test system: wheat (Wh); experiment: Test Example 3: phytotoxicity to upland crop plants, treatment before emergence; format: in vivo; details: dosage 5 kg/ha

Consider the worked cases shown below.
compoundSmiles: CCCNC(=O)c1nc2sccc2cc1C(=O)Nc1c(CC)ccc(Cl)c1CC
Phytotoxicity Wh: 5 (Crop-killing rate is 100%.)

compoundSmiles: CCc1ccc(Cl)c(CC)c1NC(=O)c1cc2cc3c(cc2nc1C(=O)NCC(C)C)OCO3
Phytotoxicity Wh: 1 (Crop-killing rate is 1-39%.)

compoundSmiles: CCCNC(=O)c1nc2c(cc1C(=O)Nc1c(CC)ccc(Cl)c1CC)nc(C)n2C
Phytotoxicity Wh: 5 (Crop-killing rate is 100%.)

compoundSmiles: CCCNC(=O)c1nc2ncn(C)c2cc1C(=O)Nc1c(CC)ccc(Cl)c1CC
Phytotoxicity Wh: 5 (Crop-killing rate is 100%.)

Please supply Phytotoxicity Wh for each of the following items, keeping them in order.
1. Cc1c(Cl)cccc1NC(=O)c1cc2ccsc2nc1C(=O)NC1CCCC1
2. CCCNC(=O)c1nc2c(cc1C(=O)Nc1c(CC)ccc(Cl)c1CC)CCCO2

Response:
5 (Crop-killing rate is 100%.)
5 (Crop-killing rate is 100%.)

Provide each entry's Phytotoxicity Wh from the list below.
1. CCCNC(=O)c1nc2onc(C)c2cc1C(=O)Nc1c(CC)ccc(Cl)c1CC
2. CCNC(=O)c1nc2ccccc2nc1C(=O)Nc1c(CC)ccc(Cl)c1CC
3. CCCNC(=O)c1nc2ccn(OC)c2cc1C(=O)Nc1c(CC)ccc(Cl)c1CC
4. CCCNC(=O)c1nc2ccccc2nc1C(=O)Nc1c(CC)ccc(Cl)c1CC
5. CCCNC(=O)c1nc2c(cc1C(=O)Nc1cccc(Cl)c1C)CCOC2

Response:
1. 5 (Crop-killing rate is 100%.)
2. 5 (Crop-killing rate is 100%.)
3. 5 (Crop-killing rate is 100%.)
4. 5 (Crop-killing rate is 100%.)
5. 4 (Crop-killing rate is 90-99%.)

For each listed entry, give its Phytotoxicity Wh.
1. CCNC(=O)c1nc2c(cnn2C)cc1C(=O)Nc1c(CC)ccc(Cl)c1CC
2. CCc1ccc(Cl)c(CC)c1NC(=O)c1cc2c(nc1C(=O)NC1CCCC1)OCCC2

Response:
1: 5 (Crop-killing rate is 100%.); 2: 5 (Crop-killing rate is 100%.)

* * *

test system: barnyard grass (Echinochloa crus-galli Beauv.); experiment: Test Example 2: herbicidal effect on paddy field weeds after emergence; type: in vivo; conditions: Dosage 5 kg/ha; one-leaved stage; 21 days after treatment
recordedEndpoint: Post-emergence treatment Barnyard grass (herbicidal effect)

// known answers, use as guide
compound: CCc1ccc(Cl)c(CC)c1NC(=O)c1cc2cc3c(cc2nc1C(=O)NC1CCCC1)OCO3 [compound 343]
reportedResult: 3 (Weed-killing rate is 70-89%.)
//
compound: CCCNC(=O)c1nc2c(cc1C(=O)Nc1c(CC)ccc(Cl)c1CC)nc(C)n2C [compound 1294]
reportedResult: 5 (Weed-killing rate is 100%.)
//
compound: CCCNC(=O)c1nc2c(cc1C(=O)Nc1c(CC)ccc(Cl)c1CC)OCCC2 [compound 486]
reportedResult: 5 (Weed-killing rate is 100%.)
//
compound: Cc1c(Cl)cccc1NC(=O)c1cc2c(C)noc2nc1C(=O)NC1CCCC1 [compound 1085]
reportedResult: 5 (Weed-killing rate is 100%.)
//
compound: Cc1c(Cl)cccc1NC(=O)c1cc2ccoc2nc1C(=O)NC1CCCC1 [compound 796]
reportedResult: 5 (Weed-killing rate is 100%.)
//
compound: CCCNC(=O)c1nc2c(cc1C(=O)Nc1cccc(Cl)c1C)OCCC2 [compound 498]
reportedResult: 5 (Weed-killing rate is 100%.)

Batch: Post-emergence treatment Barnyard grass (herbicidal effect) for all items listed.
1. CCNC(=O)c1nc2ccc(OC)cc2cc1C(=O)Nc1c(CC)ccc(Cl)c1CC [compound 289]
2. CCc1ccc(Cl)c(CC)c1NC(=O)c1cc2c(nc1C(=O)NC1CCCC1)OCCC2 [compound 423]
3. CCNC(=O)c1nc2ccn(OC)c2cc1C(=O)Nc1c(CC)ccc(Cl)c1CC [compound 894]
4. Cc1c(Cl)cccc1NC(=O)c1nc2ccccc2nc1C(=O)NC1CCCC1 [compound 1327]

Response:
1: 5 (Weed-killing rate is 100%.); 2: 5 (Weed-killing rate is 100%.); 3: 5 (Weed-killing rate is 100%.); 4: 4 (Weed-killing rate is 90-99%.)

Query: # Post-emergence treatment Barnyard grass (herbicidal effect) lookup, item CCCNC(=O)c1nc2ccccc2nc1C(=O)Nc1cccc(Cl)c1C [compound 1318]
Response: 4 (Weed-killing rate is 90-99%.)

* * *

system: soybean plant; test: Test Example 4: phytotoxicity to upland crop plants, treatment after emergence; format: in vivo; conditions: dosage 5 kg/ha, sprayed after emergence, judged 14 days after treatment
recordedEndpoint: Phytotoxicity So

compoundSmiles: CCCNC(=O)c1nc2ccn(C)c2cc1C(=O)Nc1c(CC)ccc(Cl)c1CC
targetOrSystem: soybean plant
Phytotoxicity So: 4 (Crop-killing rate is 90-99%.)

I have 8 compounds here; please give me Phytotoxicity So for each one.
1. CCNC(=O)c1nc2ccc(O)cc2cc1C(=O)Nc1c(CC)ccc(Cl)c1CC
2. CCc1ccc(Cl)c(CC)c1NC(=O)c1nc2ccccc2nc1C(=O)NC1CCCC1
3. CCCNC(=O)c1nc2c(cc1C(=O)Nc1c(CC)ccc(Cl)c1CC)CCSC2
4. CCCNC(=O)c1nc2c(cc1C(=O)Nc1c(CC)ccc(Cl)c1CC)c(C)nn2C
5. CCNC(=O)c1nc2ccc(OC)cc2cc1C(=O)Nc1c(CC)ccc(Cl)c1CC
6. CCCNC(=O)c1cc2c(nc1C(=O)Nc1c(CC)ccc(Cl)c1CC)S(=O)(=O)CC2
7. CCCNC(=O)c1nc2cscc2cc1C(=O)Nc1c(CC)ccc(Cl)c1CC
8. Cc1c(Cl)cccc1NC(=O)c1cc2c(nc1C(=O)NCC(C)C)OCCC2

Response:
1. 1 (Crop-killing rate is 1-39%.)
2. 5 (Crop-killing rate is 100%.)
3. 4 (Crop-killing rate is 90-99%.)
4. 5 (Crop-killing rate is 100%.)
5. 1 (Crop-killing rate is 1-39%.)
6. 4 (Crop-killing rate is 90-99%.)
7. 4 (Crop-killing rate is 90-99%.)
8. 3 (Crop-killing rate is 70-89%.)
